# assay-overview: The drug is tested on WLS-370 corresponding to human gut metagenome with ENA study accession number: PRJEB37062 and ENA sample accession number: ERS12561793 for biotransformation under anaerobic condition. The drug concentrations were measured over 9 timepoints collected between 0 and 24 hours of incubation by liquid-chromatography-coupled mass spectrometry (LC–MS); also: call rule not given here
# particulars: 2 µM
measurement-kind: Bacterial Biotransformation

Examples with their reported Bacterial Biotransformation follow.
CCC1(c2ccc(N)cc2)CCC(=O)NC1=O (centres undefined) [AMINOGLUTETHIMIDE] ... Compound NOT metabolized
CN1CCN(CC/C=C2/c3ccccc3Sc3ccc(S(=O)(=O)N(C)C)cc32)CC1 ... Compound metabolized
CCCCC(=O)N(Cc1ccc(-c2ccccc2-c2nnn[nH]2)cc1)[C@H](C(=O)O)C(C)C ... Compound metabolized
CN1CCc2c(c3ccccc3n2Cc2ccccc2)C1.CN1CCc2c(c3ccccc3n2Cc2ccccc2)C1.O=S(=O)(O)c1cccc2c(S(=O)(=O)O)cccc12 ... Compound metabolized
CC(=O)O[C@]1(C(C)=O)CC[C@H]2[C@@H]3C=C(Cl)C4=CC(=O)[C@@H]5C[C@@H]5[C@]4(C)[C@H]3CC[C@@]21C [CYPROTERONE ACETATE] ... Compound metabolized
OCCN1CCN(CCCN2c3ccccc3Sc3ccc(C(F)(F)F)cc32)CC1 ... Compound metabolized
CCN(CC)C(C)CN1c2ccccc2Sc2ccccc21 (centres undefined) ... Compound metabolized
CC[C@@H](CO)NC(=O)[C@@H]1C=C2c3cccc4c3c(cn4C)C[C@H]2N(C)C1.O=C(O)/C=C\C(=O)O [METHYSERGIDE MALEATE] ... Compound NOT metabolized

Could you now consider this next molecule?
For Nc1nc2ccc(OC(F)(F)F)cc2s1 , what is its reported Bacterial Biotransformation?
Compound metabolized

---

# particulars: human gut metagenome, 24 h, 2 µM
measurement-kind: Bacterial Biotransformation

Examples with their reported Bacterial Biotransformation follow.
CCC1(c2ccc(N)cc2)CCC(=O)NC1=O (centres undefined) [AMINOGLUTETHIMIDE] ... Compound NOT metabolized
OC(CCN1CCCCC1)(c1ccccc1)C1CC2C=CC1C2 (centres undefined) [BIPERIDEN] ... Compound NOT metabolized
NS(=O)(=O)c1cc2c(cc1Cl)N=C(CSCc1ccccc1)NS2(=O)=O [BENZTHIAZIDE] ... Compound NOT metabolized
CNS(=O)(=O)Cc1ccc2[nH]cc(CCN(C)C)c2c1.O=C(O)CCC(=O)O [SUMATRIPTAN SUCCINATE] ... Compound metabolized
CN1CCc2c(c3ccccc3n2Cc2ccccc2)C1.CN1CCc2c(c3ccccc3n2Cc2ccccc2)C1.O=S(=O)(O)c1cccc2c(S(=O)(=O)O)cccc12 ... Compound metabolized

Could you now consider this next molecule?
For C=CCc1ccccc1OCC(O)CNC(C)C (centres undefined) [ALPRENOLOL] , what is its reported Bacterial Biotransformation?
Compound metabolized

---

# particulars: human gut metagenome, 24 h, 2 µM
measurement-kind: Bacterial Biotransformation

Examples with their reported Bacterial Biotransformation follow.
CN1CC(=O)N2[C@H](c3ccc4c(c3)OCO4)c3[nH]c4ccccc4c3C[C@@H]2C1=O ... Compound metabolized
O=C(Nc1ccccc1)OCC(CN1CCCCC1)OC(=O)Nc1ccccc1 (stereo not drawn) ... Compound metabolized
NC(CO)(CO)CO.O=C(c1ccccc1)c1ccc2n1CCC2C(=O)O (stereo not drawn) ... Compound metabolized
COC1=CC(=O)C[C@@H](C)[C@]12Oc1c(Cl)c(OC)cc(OC)c1C2=O ... Compound metabolized
CC(CN(C)C)CN1c2ccccc2CCc2ccccc21.O=C(O)/C=C\C(=O)O (stereo not drawn) [TRIMIPRAMINE MALEATE] ... Compound metabolized

For O=C1NCC2(CCN(CCc3ccccc3)CC2)O1 [FENSPIRIDE] , what is its reported Bacterial Biotransformation?
Compound NOT metabolized

For CC(C)(C#N)c1cc(Cn2cncn2)cc(C(C)(C)C#N)c1 , what is its reported Bacterial Biotransformation?
Compound metabolized

For COc1ccc2c3c1O[C@H]1C[C@@H](O)C=C[C@@]31CCN(C)C2 , what is its reported Bacterial Biotransformation?
Compound NOT metabolized

For OCCOCCN1CCN(C2=Nc3ccccc3Sc3ccccc32)CC1 , what is its reported Bacterial Biotransformation?
Compound metabolized

---

# assay-overview: The drug is tested on Z-020 corresponding to rabbit gut metagenome with ENA study accession number: PRJEB37062 and ENA sample accession number: ERS12561819 for biotransformation under anaerobic condition. The drug concentrations were measured over 9 timepoints collected between 0 and 24 hours of incubation by liquid-chromatography-coupled mass spectrometry (LC–MS)
# particulars: 2 µM
measurement-kind: Bacterial Biotransformation

Examples with their reported Bacterial Biotransformation follow.
OCCN1CCN(CCCN2c3ccccc3Sc3ccc(C(F)(F)F)cc32)CC1 ... Compound NOT metabolized
C[C@@H]1C[C@H]2[C@@H]3CCC4=CC(=O)C=C[C@]4(C)[C@@]3(F)[C@@H](O)C[C@]2(C)[C@@]1(O)C(=O)CO ... Compound metabolized
Cc1nc(-c2ccc(OCC(C)C)c(C#N)c2)sc1C(=O)O ... Compound metabolized
O=C(Nc1ccccc1)OCC(CN1CCCCC1)OC(=O)Nc1ccccc1 (stereo not drawn) ... Compound NOT metabolized
COCCc1ccc(OCC(O)CNC(C)C)cc1.COCCc1ccc(OCC(O)CNC(C)C)cc1.O=C(O)C(O)C(O)C(=O)O (stereo not drawn) [METOPROLOL TARTRATE] ... Compound NOT metabolized
COC(=O)Nc1nc2ccc(C(=O)c3ccccc3)cc2[nH]1 ... Compound metabolized
OCCOCCN1CCN(C2=Nc3ccccc3Sc3ccccc32)CC1 ... Compound NOT metabolized

Could you now consider this next molecule?
For CC(C)(C#N)c1cc(Cn2cncn2)cc(C(C)(C)C#N)c1 , what is its reported Bacterial Biotransformation?
Compound NOT metabolized

---

# particulars: human gut metagenome, 24 h, 2 µM
measurement-kind: Bacterial Biotransformation

COc1ccc2c3c1O[C@H]1C[C@@H](O)C=C[C@@]31CCN(C)C2 ... Compound NOT metabolized
CC(C)NCC(O)COc1ccc(COCCOC(C)C)cc1.CC(C)NCC(O)COc1ccc(COCCOC(C)C)cc1.O=C(O)/C=C/C(=O)O (centres undefined) [BISOPROLOL FUMARATE] ... Compound NOT metabolized
O=c1[nH]c2ccccc2n1C1CCN(CCCC(c2ccc(F)cc2)c2ccc(F)cc2)CC1 [PIMOZIDE] ... Compound metabolized
O=P(O)(O)O.c1ccc(CN(CC2=NCCN2)c2ccccc2)cc1 [ANTAZOLINE PHOSPHATE] ... Compound metabolized

---

# particulars: human gut metagenome, 24 h, 2 µM
measurement-kind: Bacterial Biotransformation

CC(C)NCC(O)COc1ccc(COCCOC(C)C)cc1.CC(C)NCC(O)COc1ccc(COCCOC(C)C)cc1.O=C(O)/C=C/C(=O)O (configuration not stated) [BISOPROLOL FUMARATE] ... Compound metabolized
CN1C(C(=O)Nc2ccccn2)=C(O)c2sccc2S1(=O)=O [TENOXICAM] ... Compound NOT metabolized
COC(=O)[C@H]1[C@H]2C[C@@H]3c4[nH]c5cc(OC)ccc5c4CCN3C[C@H]2C[C@@H](OC(=O)c2cc(OC)c(OC)c(OC)c2)[C@@H]1OC [RESERPINE] ... Compound metabolized
OCCOCCN1CCN(C2=Nc3ccccc3Sc3ccccc32)CC1 [QUETIAPINE] ... Compound metabolized

For CC(C)(Oc1ccc(CCNC(=O)c2ccc(Cl)cc2)cc1)C(=O)O [BEZAFIBRATE] , what is its reported Bacterial Biotransformation?
Compound metabolized

For CC(CN1c2ccccc2Sc2ccccc21)N(C)C (configuration not stated) [PROMETHAZINE] , what is its reported Bacterial Biotransformation?
Compound metabolized

For CC(=O)OCC(=O)[C@@]1(O)[C@@H](C)C[C@H]2[C@@H]3CCC4=CC(=O)C=C[C@]4(C)[C@@]3(F)[C@@H](O)C[C@@]21C [BETAMETHASONE ACETATE] , what is its reported Bacterial Biotransformation?
Compound metabolized

For CCCc1nn(C)c2c(=O)[nH]c(-c3cc(S(=O)(=O)N4CCN(C)CC4)ccc3OCC)nc12.O=C(O)CC(O)(CC(=O)O)C(=O)O [SILDENAFIL CITRATE] , what is its reported Bacterial Biotransformation?
Compound metabolized

For COc1cc2nc(N(C)CCCNC(=O)C3CCCO3)nc(N)c2cc1OC (configuration not stated) [ALFUZOSIN] , what is its reported Bacterial Biotransformation?
Compound metabolized

For CCC(=O)NCC[C@@H]1CCc2ccc3c(c21)CCO3 [RAMELTEON] , what is its reported Bacterial Biotransformation?
Compound metabolized

For CN(C)CCc1c[nH]c2ccc(Cn3cncn3)cc12.O=C(O)c1ccccc1 [RIZATRIPTAN BENZOATE] , what is its reported Bacterial Biotransformation?
Compound NOT metabolized

For Cc1ccc(-c2cc(C(F)(F)F)nn2-c2ccc(S(N)(=O)=O)cc2)cc1 [CELECOXIB] , what is its reported Bacterial Biotransformation?
Compound metabolized

For COc1cc2c(c(OC)c1OC)-c1ccc(OC)c(=O)cc1[C@@H](NC(C)=O)CC2 [COLCHICINE] , what is its reported Bacterial Biotransformation?
Compound metabolized

For CC(C)c1nc(CN(C)C(=O)N[C@H](C(=O)N[C@@H](Cc2ccccc2)C[C@H](O)[C@H](Cc2ccccc2)NC(=O)OCc2cncs2)C(C)C)cs1 [RITONAVIR] , what is its reported Bacterial Biotransformation?
Compound metabolized

For OC(CCN1CCCCC1)(c1ccccc1)C1CC2C=CC1C2 (configuration not stated) [BIPERIDEN] , what is its reported Bacterial Biotransformation?
Compound metabolized

// data source = ChEMBL document CHEMBL5724914
